- procedure_summary: ACEA_ER_80hr: ACEA Biosciences xCELLigence Real-Time Cell Analysis on Estrogen Receptor Agonism for Proliferation (AID 2282667)
- condition_set: T47D proliferation, impedance (xCELLigence), 80 h
Results filed as inconclusive are left out. Activity calls are given as the source filed them. Rule for the calls: active = hit-call score of the fitted dose curve at least 0.9, where 1 is the maximum; inconclusive = response in the unintended direction; inactive = score below 0.9.
recorded_metric: outcome

// below: answered compounds
CCC(C)Nc1c([N+](=O)[O-])cc(C(C)(C)C)cc1[N+](=O)[O-] (stereo unspecified) :: inactive
CNC(=O)/C=C(\C)OP(=O)(OC)OC :: inactive
Cc1[nH]c(=O)n(C(C)(C)C)c(=O)c1Cl :: inactive
O=C(NC(=O)c1c(F)cccc1F)Nc1ccc(OC(F)(F)C(F)OC(F)(F)F)c(Cl)c1 (stereo unspecified) :: inactive
N#CN :: inactive

// next entry
Ask | For C#CCN1C(=O)COc2cc(F)c(N3C(=O)C4=C(CCCC4)C3=O)cc21 , write its outcome.
Reply | inactive

###

- procedure_summary: STM_H9_CystineISnorm_perc: Stemina devTOX quickPredict H9 human embryonic stem cell (hESC)-based Assay for Cystine (CYSS) Metabolite Biomarker, Normalized (AID 2283713)
Calls of active or inactive are those of the source. Rule for the calls: active = hit-call score of the fitted dose curve at least 0.9, where 1 is the maximum; inactive = score below 0.9.
// one of label 1 (active), label 0 (inactive), no free text

Ask | What call does the record list for O=C(O)C(F)(F)C(F)(F)C(F)(F)C(F)(F)C(F)(F)C(F)(F)C(F)(F)F ?
Reply | label 0

Ask | What call does the record list for O=S1OCC2C(CO1)C1(Cl)C(Cl)=C(Cl)C2(Cl)C1(Cl)Cl (stereo unspecified) ?
Reply | label 1

Ask | What call does the record list for CC(C)OC(=O)Nc1cccc(Cl)c1 ?
Reply | label 1

Ask | What call does the record list for Oc1cc(Cl)ccc1Oc1ccc(Cl)cc1Cl ?
Reply | label 1

Ask | What call does the record list for CC(C)(C)C(O)/C(=C\c1ccc(Cl)cc1Cl)n1cncn1 (stereo unspecified) ?
Reply | label 1

Ask | What call does the record list for Cc1[nH]c(=O)n(C(C)(C)C)c(=O)c1Cl ?
Reply | label 0

###

- procedure_summary: ACEA_AR_antagonist_AUC_viability: ACEA Biosciences xCELLigence Real-Time Cell Analysis on Androgen Receptor Antagonism for Viability (AID 2283776);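 note: 22Rv1 human prostate cancer cells growing on impedance electrode plates; area under impedance growth curve at 80 h after dosing as viability; hits lower the growth signal relative to DMSO meaning cytotoxicity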
Results filed as inconclusive are left out. Activity calls are given as the source filed them. Rule for the calls: active = hit-call score of the fitted dose curve at least 0.9, where 1 is the maximum; inconclusive = response in the unintended direction; inactive = score below 0.9.
// one of active, inactive, no free text

Ask | What call does the record list for CC(C)(C)C(O)/C(=C\c1ccc(Cl)cc1Cl)n1cncn1 (stereo unspecified) ?
Reply | active

Ask | What call does the record list for CC(C)(C)C(O)C(Oc1ccc(Cl)cc1)n1cncn1 (stereo unspecified) ?
Reply | active

Ask | What call does the record list for O=[N+]([O-])c1c(Cl)c(Cl)c(Cl)c(Cl)c1Cl ?
Reply | active

Ask | What call does the record list for OCCOc1ccccc1 ?
Reply | inactive

Ask | What call does the record list for CCc1ccc(C(=O)NN(C(=O)c2cc(C)cc(C)c2)C(C)(C)C)cc1 ?
Reply | active

Ask | What call does the record list for C[C@H]1[C@H](c2ccc(Cl)cc2)SC(=O)N1C(=O)NC1CCCCC1 ?
Reply | active

###

- procedure_summary: BSK_3C_uPAR: BioMAP Diversity Plus: 3C Assay for Urokinase-type plasminogen activator receptor (uPAR) Biomarker Activity (AID 2282998)
- condition_set: BioMAP 3C HUVEC, uPAR biomarker ELISA; actives raise or lower the signal
Activity calls are given as the source filed them. Rule for the calls: active = hit-call score of the fitted dose curve at least 0.9, where 1 is the maximum; inactive = score below 0.9.
recorded_metric: AC50

// below: answered compounds
C#CCN1C(=O)COc2cc(F)c(N3C(=O)C4=C(CCCC4)C3=O)cc21 :: inactive
CNC(=O)CSP(=S)(OC)OC :: inactive
CCC(C)(C)C(=O)OC1=C(c2ccc(Cl)cc2Cl)C(=O)OC12CCCCC2 :: 33.9 µM (active)
CC(C)OC(=O)Nc1cccc(Cl)c1 :: inactive
Oc1cc(Cl)ccc1Oc1ccc(Cl)cc1Cl :: 12 µM (active) [middle of 4 runs]
Cc1[nH]c(=O)n(C(C)(C)C)c(=O)c1Cl :: inactive
OCCOc1ccccc1 :: inactive
CCc1ccc(C(=O)NN(C(=O)c2cc(C)cc(C)c2)C(C)(C)C)cc1 :: 20 µM (active)
Cc1cc(C)nc(NC(=O)NS(=O)(=O)c2ccccc2C(=O)OC2COC2)n1 :: inactive
Clc1ccccc1-c1nnc(-c2ccccc2Cl)nn1 :: inactive

Ask | For O=C(Nc1ccccc1)Nc1cnns1 , write its AC50.
Reply | inactive

Ask | For CCOCN(C(=O)CCl)c1c(C)cccc1CC , write its AC50.
Reply | inactive
